# Test system: NCI-H460
# PROCEDURE TEXT: NCI tumour cell line growth inhibition, 48 h
Active and inactive are the calls of the source. Cut-off read from the data, not from the text of the source: active = GI50 up to about 1.1 µM and inactive = higher.
VALUE TYPE: GI50

Previously resolved entries follow.
CCCc1ccc(NCc2cc(OC)c(OC)c(OC)c2)cc1 :: 55 µM (inactive)
c1ccc2cc3[s+]snc3cc2c1 :: > 100 µM (inactive)
Cc1cc2c(cc1Cl)S(=O)(=O)OC(c1ccc([N+](=O)[O-])cc1)=N2 :: > 100 µM (inactive)
COC(=O)C(=O)C(C(=O)C(=O)Nc1cc(C)ccc1C)c1nc2ccccc2nc1O (configuration not stated) :: > 100 µM (inactive)
CC1=C(C(=O)Nc2ccccc2C)C(c2ccc(C3C(C(=O)Nc4ccccc4C)=C(C)NC(C)=C3C(=O)Nc3ccccc3C)cc2)C(C(=O)Nc2ccccc2C)=C(C)N1 :: 9.04 µM (inactive)
CCOC(=O)CCC(NC(=O)Cc1ccc(Nc2nc3ccccc3nc2-c2ccccc2)cc1)C(=O)OCC (configuration not stated) :: > 100 µM (inactive)

Lab note: compound `COc1ccc(C[C@H](N)C(=O)N2C[C@@H](CO)C[C@@H](n3ccc(=O)[nH]c3=O)C2)cc1` tested on NCI-H460; recorded GI50 was > 100 µM (inactive)

Lab note: compound `COc1ccccc1-c1c(C#N)c(N)[nH]c(=S)c1C#N` tested on NCI-H460; recorded GI50 was 67 µM (inactive)

Lab note: compound C[C@]12C/C(=C/O)C(=O)C(O)=C1CC[C@@H]1C2CC[C@@]2(C)C1CC[C@@H]2O (some centres not stated) tested on NCI-H460; recorded GI50 was 21.8 µM (inactive)

Lab note: compound `COc1cc(-c2c3c([nH]c(=O)c2C#N)-c2cc([N+](=O)[O-])ccc2CCC3)cc(OC)c1OC` tested on NCI-H460; recorded GI50 was 16.8 µM (inactive)

Lab note: compound CN1C(=O)c2ccccc2OC12C=Cc1c(ccc3ccccc13)O2 (configuration not stated) tested on NCI-H460; recorded GI50 was 6.59 µM (inactive)

====

# System: SK-OV-3
# PROCEDURE TEXT: NCI tumour cell line growth inhibition, 48 h
Calls of active or inactive are those of the source. Rule as the data show it: active = GI50 up to about 1.1 µM and inactive = higher.
A correct response names exactly one class from active, inactive

Tell me the recorded outcome of this test for `C/C(=N/NC(=S)N1CCN(C(=S)N/N=C(/C)c2ccccn2)CC1)c1ccccn1` .
inactive

Tell me the recorded outcome of this test for CCC12C=C(C(=O)OC)N3c4ccccc4C4CCN(CCC1)C2C43 (configuration not stated) .
inactive

Tell me the recorded outcome of this test for `Nc1c(-c2nc3ccccc3[nH]2)sc(=S)n1-c1ccc(Cl)cc1` .
inactive

Tell me the recorded outcome of this test for `C=CCN(c1cc(OC)c2[nH]c(C(=O)O)c(C)c2c1[N+](=O)[O-])S(C)(=O)=O` .
inactive

Tell me the recorded outcome of this test for `O=C(CSc1ncnc2[nH]cnc12)c1ccccc1` .
inactive

Tell me the recorded outcome of this test for `CCCNC1=C(C)C(=O)C2=C(C1=O)[C@H](COC(N)=O)[C@]1(OC)[C@@H]3N[C@@H]3CN21` .
inactive

Tell me the recorded outcome of this test for `O=C(CCc1ccccc1)NCCc1ccc(O)c(O)c1` .
inactive

Tell me the recorded outcome of this test for `CN(C)/C=N/c1ccc2nonc2c1` .
inactive

Tell me the recorded outcome of this test for CC(=O)OCC1=C(C(=O)O)C(c2ccc3c(c2)OCO3)c2cc3c(cc2O1)OCO3 (configuration not stated) .
inactive

Tell me the recorded outcome of this test for CC1(c2nc3ccccc3[nH]2)CCC(C(=O)O)C(C)(C)O1 (configuration not stated) .
inactive

Tell me the recorded outcome of this test for `Cc1cccc(-c2cc(O)c3cc(C)cnc3n2)c1` .
active

Tell me the recorded outcome of this test for `CC(=O)c1sc2[n+](c1C)C(=O)/C(=C\c1ccccc1Cl)S2` .
inactive

Tell me the recorded outcome of this test for `C1=C(N2CCOCC2)/C(=C2\SC(=N/c3ccccc3)/C(=N\c3ccccc3)N2c2ccccc2)CC1` .
inactive
